Origin of values: paper PMC11868117

assayed_target: SARS-CoV-2 Delta VOC spike (S) protein (SARS-CoV-2 (Delta variant))
test_name: ELONA (direct, immobilized protein)
measured_metric: Kd (nM)
One number for each entry, in nM.

Recorded Kd for ATCGAGCATGGCGAGTGTCCTATCCCCCATCAACTCAACCCAACCAGTACGACTCCTCCTCGTCTGAATGACGGCTAACT [Delta Apt (Bio)] , please?
112

====

assayed_target: SARS-CoV-2 Alpha VOC spike (S) protein (SARS-CoV-2 (Alpha variant)) (UniProt P0DTC2)
test_name: ELONA (direct, immobilized protein)
measured_metric: Kd (nM)
Numbers only, in nM.

Which value of Kd has been reported for AGTTAGCCGTCATTCAGACGATTTGTCCGTGTTACGATTGGGGAACGTGGATGACATTCTGGACACTCGCCATGCTCGAT [Alpha Apt (Bio)] in the records?
194
